Source: ChEMBL document CHEMBL1121742

system: Staphylococcus aureus; assay: Minimum inhibitory concentration of compound tested for antibacterial activity against Staphylococcus aureus 209 P(FDA); format: functional

Compound | MIC
COC1/C=C/OC2(C)Oc3c(C)c(O)c4c(c3C2=O)C(=O)C(C(=O)N(C)N2CCCCC2)=C(NC(=O)/C(C)=C\C=C\C(C)C(O)C(C)C(O)C(C)C(OC(C)=O)C1C)C4=O (stereo not drawn) | ~0.03 µg/mL
CO[C@H]1/C=C/O[C@@]2(C)Oc3c(C)c(O)c4c(O)c(c(/C=N/N5CCN(C)CC5)c(O)c4c3C2=O)NC(=O)/C(C)=C\C=C\[C@H](C)[C@H](O)[C@@H](C)[C@@H](O)[C@@H](C)[C@H](OC(C)=O)[C@@H]1C [RIFAMPIN] | ~0.025 µg/mL
COC1/C=C/OC2(C)Oc3c(C)c(O)c4c(c3C2=O)C(=O)C(C(=O)OCC(O)CO)=C(NC(=O)/C(C)=C\C=C\C(C)C(O)C(C)C(O)C(C)C(OC(C)=O)C1C)C4=O (stereo not drawn) | ~0.5 µg/mL
